Attribution: paper PMC8920107

Attribute: fraction unbound
# method notes: Estimated total plasma protein binding from biomimetic HPLC data (model equation)
# measurement conditions: human, from % HSA, % AGP and lipophilicity, standard 6 min protocol; read-out: Estimated % plasma protein binding (PPB) (converted)
Answer as a number with no unit attached.

CCN(CCO)CCCC(C)Nc1ccnc2cc(Cl)ccc12 (centres unmarked) [HCQ, hydroxy-chloroquine] : 0.07

Next up:
Lookup: Field request: fraction unbound | item: CCN(CC)CCCC(C)Nc1ccnc2cc(Cl)ccc12 (centres unmarked)
Found: 0.05

====

# Tested on: AGP
# method notes: Literature AGP binding by equilibrium dialysis
endpoint label: log k (AGP)

Example compounds with recorded log k (AGP):
CC(=O)CC(c1ccccc1)c1c(O)c2ccccc2oc1=O (stereo not shown) : 0.7
COc1cc(Cc2cnc(N)nc2N)cc(OC)c1OC : -0.1
O=C(O)Cc1ccccc1Nc1c(Cl)cccc1Cl : 0.2

Attention now shifts to the item below.
Lookup: Give the measured log k (AGP) of COc1ccc2c(c1)c(CC(=O)O)c(C)n2C(=O)c1ccc(Cl)cc1 .
Found: 0.1
